Assay: AUCt in Wistar rat at 5 mg/kg, po
Assay type: ADME, organism-based
Design: dose 5 mg/kg, route oral
Details: plasma
measure: AUC(0-t) (ng·h/mL)
Write down the numeric answer in ng·h/mL and omit the unit.

Q: Looking for the measured AUC(0-t) of COc1cc(-c2nc3ccc(-c4cccc(CN(C)C)c4)cc3c(=O)n2CC(=O)NC(C)C)ccc1F , can you help?
Ans: 930

---

Reported Papp A→B values for the following compounds.
Assay: Apparent permeability of the compound from apical to basolateral side in human Caco2 cell membrane
Conditions: Caco-2
Answers without a unit are incomplete; give the number and then its unit.

Q: Query: Papp A→B; subject: COc1cccc(-c2nc3ccc(-c4cc(CN(C)C)ccc4F)cc3c(=O)n2CC(=O)NC(C)C)c1
Ans: 12.1 ×10⁻⁶ cm/s

Others:
Q: What value of Papp A→B has been recorded for this entry: COc1cc(-c2nc3ccc(-c4cccc(CN(C)C)c4)cc3c(=O)n2CC(=O)NC(C)C)ccc1F
Ans: 6.8 ×10⁻⁶ cm/s
